Assay: BSK_3C_Vis: BioMAP Diversity Plus: 3C Assay for Morphology Visualization (AID 2283025);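 also: fitted both ways so gain or loss versus DMSO counts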
Conditions: primary human endothelial cells (HUVEC)
Experimental: BSK_3C is a cell-based, multiplexed-readout assay that uses umbilical vein endothelium, a human vascular primary cell, with measurements taken at 24 hours after chemical dosing in a 96-well plate.BSK_3C_Vis is an assay component measured in the BSK_3C assay. It measures NA related to cell morphology using light microscopy technology.Data from the assay component BSK_3C_Vis was analyzed into 1 assay endpoint. […]
The source made the active and inactive calls. The calls were made as follows: active = hit-call score of the fitted dose curve at least 0.9, where 1 is the maximum; inactive = score below 0.9.
The categories you may choose from are active, inactive

>>> group_label("Cc1oc2c(NC(=O)c3c(Cl)cccc3Cl)cccc2c1C(C)(C)O")
"active"
>>> group_label("CO[C@H]1/C=C/O[C@@]2(C)Oc3c(C)c(O)c4c(O)c(c(/C=N/N5CCN(C)CC5)c(O)c4c3C2=O)NC(=O)/C(C)=C\\C=C\\[C@H](C)[C@H](O)[C@@H](C)[C@@H](O)[C@@H](C)[C@H](OC(C)=O)[C@@H]1C")
"inactive"
>>> group_label("CC1=CC(=O)/C(=C(/C)O)C(=O)O1")
"inactive"
>>> group_label("Clc1ccccc1C(c1ccccc1)(c1ccccc1)n1ccnc1")
"active"
>>> group_label("COc1cc(C(=O)NC2CCN(C)CC2)ccc1Nc1ncc2c(n1)N(C1CCCC1)CC(F)(F)C(=O)N2C")
"active"
>>> group_label("CCCC(=O)OCCC(C)C")
"inactive"

Request: Please state the recorded outcome for this compound: CN(C[C@@H](CC[N+]12CCC(C3CCCCC3)(CC1)CC2)c1ccc(Cl)c(Cl)c1)C(=O)c1cc(C(F)(F)F)cc(C(F)(F)F)c1
Result: active

Request: Please state the recorded outcome for this compound: Cc1c2ccccc2c(C)c2c1ccc1ccccc12
Result: active

Request: Please state the recorded outcome for this compound: CC(C)(O)c1ccc(CNC(=O)c2cccnc2Oc2ccc3nonc3c2)cc1
Result: inactive

Request: Please state the recorded outcome for this compound: OCCO
Result: inactive

Request: Please state the recorded outcome for this compound: CCO[Si](CCCNC(N)=O)(OCC)OCC
Result: inactive

Request: Please state the recorded outcome for this compound: Cc1cn([C@H]2C[C@H](N=[N+]=[N-])[C@@H](CO)O2)c(=O)[nH]c1=O
Result: inactive

Request: Please state the recorded outcome for this compound: CC[C@H](NC(=O)c1cc(F)ccc1NS(=O)(=O)c1cccc2cccnc12)c1ccccc1
Result: inactive

Request: Please state the recorded outcome for this compound: O=CCCCC=O
Result: inactive

Request: Please state the recorded outcome for this compound: COc1ccc2cc(S(=O)(=O)N[C@H](CC(=O)N[C@H](Cc3ccc(CN4[C@H](C)CCC[C@@H]4C)cc3)C(=O)N(C)C(C)C)c3ccc4c(c3)OCO4)ccc2c1
Result: active

Request: Please state the recorded outcome for this compound: CC(C)(c1cc(Br)c(O)c(Br)c1)c1cc(Br)c(O)c(Br)c1
Result: active

Request: Please state the recorded outcome for this compound: O=c1c(-c2ccc(O)cc2)coc2cc(O)cc(O)c12
Result: active

Request: Please state the recorded outcome for this compound: CC/C(=C(/CC)c1ccc(O)cc1)c1ccc(O)cc1
Result: active

Request: Please state the recorded outcome for this compound: Cc1ccc2oc(CN(Cc3ccccc3)C(=O)Nc3c(F)cc(F)cc3F)c(-c3ccc(Cl)cc3)c2c1
Result: inactive

Request: Please state the recorded outcome for this compound: CCCCCCCCOC(=O)c1cc(O)c(O)c(O)c1
Result: active

Request: Please state the recorded outcome for this compound: CCCCOC(=O)c1ccc(O)cc1
Result: inactive

---

read-out: Interleukin-8 (IL8), CXCL8 (gene 3576); test: BSK_SAg_IL8: BioMAP Diversity Plus: SAg Assay for Interleukin-8 (IL8) Biomarker Activity (AID 2283094); details: primary human HUVEC with PBMC; actives raise or lower the signal
Activity calls are given as the source filed them. The calls were made as follows: active = hit-call score of the fitted dose curve at least 0.9, where 1 is the maximum; inactive = score below 0.9.
The categories you may choose from are 1 (active), 0 (inactive)

Answered examples (3):
>>> group_label("CC(C)(C)c1cc(/C=C2\\SC(N)=NC2=O)cc(C(C)(C)C)c1O")
1
>>> group_label("Cc1ncc(CO)c(CO)c1O")
0
>>> group_label("CCO[Si](CCCNC(N)=O)(OCC)OCC")
0

Here is another molecule to look at.
Request: Please state the recorded outcome for this molecule: CCCCCCCCN(C)CCCCCCCC
Result: 0

---

read-out: Insulin Like Growth Factor 1 (IGF1), IGF1 (gene 3479); test: LTEA_HepaRG_IGF1: Life Technologies and Expression Analysis (LTEA) Assay for Insulin Like Growth Factor 1 (IGF1) using HepaRG (AID 2283506); conditions: mRNA level, 48 h; actives raise or lower the signal
The source made the active and inactive calls. Rule for the calls: active = hit-call score of the fitted dose curve at least 0.9, where 1 is the maximum; inactive = score below 0.9.
The categories you may choose from are active, inactive

Answered examples (5):
>>> group_label("CCCCCCCCOc1ccc(C(=O)c2ccccc2)c(O)c1")
"inactive"
>>> group_label("CCO[Si](CCCNC(N)=O)(OCC)OCC")
"inactive"
>>> group_label("O=C(OCCCCCCOC(=O)c1ccccc1)c1ccccc1")
"inactive"
>>> group_label("CCCCCCCC[Si](OCC)(OCC)OCC")
"inactive"
>>> group_label("OC12N=C(c3ccccc3)SC1Cc1cc(Cl)ccc12 (stereo unspecified)")
"active"

Request: Please state the recorded outcome for this compound: Cc1occc1C(=O)Nc1ccc(C(=O)N2CCC(F)(F)/C(=C\C(=O)N3CCC(N4CCCCC4)CC3)c3ccccc32)cc1
Result: active

Request: Please state the recorded outcome for this compound: COc1cc(C(=O)NC2CCN(C)CC2)ccc1Nc1ncc2c(n1)N(C1CCCC1)CC(F)(F)C(=O)N2C
Result: active

Request: Please state the recorded outcome for this compound: CN(C)C(=O)C1(N2CCCCC2)CCN(CC[C@@]2(c3ccc(Cl)c(Cl)c3)CN(C(=O)c3ccccc3)CCO2)CC1
Result: active

Request: Please state the recorded outcome for this compound: Cc1ccc2oc(CN(Cc3ccccc3)C(=O)Nc3c(F)cc(F)cc3F)c(-c3ccc(Cl)cc3)c2c1
Result: active

Request: Please state the recorded outcome for this compound: CN(C)c1ccc(C(=C2C=CC(=[N+](C)C)C=C2)c2ccc(N(C)C)cc2)cc1
Result: active

Request: Please state the recorded outcome for this compound: Cc1cn([C@H]2C[C@H](N=[N+]=[N-])[C@@H](CO)O2)c(=O)[nH]c1=O
Result: inactive

Request: Please state the recorded outcome for this compound: O=C(Nc1ccc(Cl)cc1)Nc1ccc(Cl)c(Cl)c1
Result: active

Request: Please state the recorded outcome for this compound: CC(=O)N1CCN(c2ccc(OC[C@H]3CO[C@](Cn4ccnc4)(c4ccc(Cl)cc4Cl)O3)cc2)CC1
Result: active

Request: Please state the recorded outcome for this compound: CCCCCCCCCCCO
Result: inactive

Request: Please state the recorded outcome for this compound: NCc1cccc(C2CCN(C(=O)c3ccc(C#Cc4ccccc4F)o3)CC2)c1
Result: inactive

Request: Please state the recorded outcome for this compound: C[C@]12CC[C@@H]3c4ccc(O)cc4CC[C@H]3[C@@H]1CC[C@H]2O
Result: active

---

target: Myc proto-oncogene protein (Homo sapiens) (UniProt P01106); assay: ATG_Myc_CIS: Attagene CIS-FACTORIAL HepG2 Assay for human Myelocytomatosis (Myc) Proto-Oncogene Transcription Factor (AID 2282990); details: HepG2, Attagene cis-reporter transcription factor activity; actives raise or lower the signal
Sequence (P01106 whole entry, looked up): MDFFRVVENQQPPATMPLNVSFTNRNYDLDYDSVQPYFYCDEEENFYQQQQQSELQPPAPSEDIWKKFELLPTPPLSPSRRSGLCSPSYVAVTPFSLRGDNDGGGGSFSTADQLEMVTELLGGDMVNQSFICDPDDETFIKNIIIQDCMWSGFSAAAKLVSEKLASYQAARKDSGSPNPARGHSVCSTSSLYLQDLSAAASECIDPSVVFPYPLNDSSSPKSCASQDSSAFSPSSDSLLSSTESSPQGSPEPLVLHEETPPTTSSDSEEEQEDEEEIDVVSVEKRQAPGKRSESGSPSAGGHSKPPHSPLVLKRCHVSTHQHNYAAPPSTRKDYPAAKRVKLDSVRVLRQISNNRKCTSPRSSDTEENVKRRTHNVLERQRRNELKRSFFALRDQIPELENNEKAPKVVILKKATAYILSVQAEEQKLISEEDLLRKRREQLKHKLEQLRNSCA
The source made the active and inactive calls. How the source made its calls: active means hit-call score of the fitted dose curve at least 0.9, where 1 is the maximum; inactive means score below 0.9.
The categories you may choose from are Yes = active, No = inactive

>>> group_label("CCCCCCCCCCCO")
"No"
>>> group_label("O=C(O)c1ccccc1-n1cc(C(=O)O)c(=O)c2cc(Nc3c(F)cc(F)cc3Cl)c(Cl)cc21")
"No"
>>> group_label("CCCCCCCCCC(=O)O")
"No"
>>> group_label("Cc1c2ccccc2c(C)c2c1ccc1ccccc12")
"Yes"
>>> group_label("NCc1cccc(C2CCN(C(=O)c3ccc(C#Cc4ccccc4F)o3)CC2)c1")
"No"
>>> group_label("CO[C@H]1/C=C/O[C@@]2(C)Oc3c(C)c(O)c4c(O)c(c(/C=N/N5CCN(C)CC5)c(O)c4c3C2=O)NC(=O)/C(C)=C\\C=C\\[C@H](C)[C@H](O)[C@@H](C)[C@@H](O)[C@@H](C)[C@H](OC(C)=O)[C@@H]1C")
"No"

Request: Please state the recorded outcome for this compound: O=c1ccc2ccccc2o1
Result: No

Request: Please state the recorded outcome for this compound: CCCCCCCCCCCC[N+](C)(C)C
Result: No

---

read-out: JUN Transcription Factor, JUN (gene 3725); assay: LTEA_HepaRG_JUN: Life Technologies and Expression Analysis (LTEA) Assay for JUN Transcription Factor using HepaRG (AID 2283513); conditions: mRNA level, 48 h; actives raise or lower the signal
Active and inactive are the calls of the source. Rule for the calls: active = hit-call score of the fitted dose curve at least 0.9, where 1 is the maximum; inactive = score below 0.9.
The categories you may choose from are active, inactive

Answered examples (6):
>>> group_label("Cc1cc(F)ccc1-c1cc(N2CC[C@@H](O)[C@H]2CO)ncc1N(C)C(=O)C(C)(C)c1cc(C(F)(F)F)cc(C(F)(F)F)c1")
"active"
>>> group_label("O=c1c(-c2ccc(O)cc2)coc2cc(O)cc(O)c12")
"inactive"
>>> group_label("CC1=CC(=O)/C(=C(/C)O)C(=O)O1")
"inactive"
>>> group_label("COCC(C)OCC(C)OCC(C)O (centres undefined)")
"inactive"
>>> group_label("Cc1ccc2oc(CN(Cc3ccccc3)C(=O)Nc3c(F)cc(F)cc3F)c(-c3ccc(Cl)cc3)c2c1")
"inactive"
>>> group_label("CCN(CC)C(=O)c1cc(S(=O)(=O)Cc2ccccc2)c(N2CCC(c3ccccc3)CC2)cc1N(CC)CCN(C)C")
"active"

Request: Please state the recorded outcome for this compound: O=C(O)c1ccccc1C(=O)OCc1ccccc1
Result: inactive

Request: Please state the recorded outcome for this compound: CCCCCCCC[Si](OCC)(OCC)OCC
Result: inactive

Request: Please state the recorded outcome for this compound: Cc1ccc(C(C)C)cc1
Result: inactive
